# Test system: BDF1 mice, P388 leukemia ip, median survival T/C
# protocol_notes: NCI In Vivo Anticancer Drug Screen. Data for tumor model P388 Leukemia (intraperitoneal) in B6D2F1 (BDF1) mice
# experimental_conditions: endpoint: median survival time; dose: 100.0 mg/kg/injection; schedule: Q04DX003 (ip); vehicle: saline
# Protocol: The antitumor activity of compounds was measured in mice bearing transplantable tumors. Survival or tumor size were measured and the results are expressed as the measurement made in the treated group (T) divided by the measurement made in the vehicle treated control group (C). The tumor model used in this assay is P388 Leukemia (intraperitoneal) in B6D2F1 (BDF1) mice
Toxic doses and inconclusive results are not listed. How the source made its calls: active means survival T/C of 150% or more; inactive means T/C below 125% in these data.
Classes used: active, inactive

* O=COC1CC2CC1C1CCCC21 (configuration not stated) | inactive
* O=C1CSC(=S)N1c1ccco1 | inactive
* CCOC(=O)C(OCc1ccccc1)(C(=O)OCC)C(C)C | inactive
* c1nc(SSc2ncnc3nc[nH]c23)c2[nH]cnc2n1 | inactive
* CC(N)C(=O)O (configuration not stated) | inactive
* CC(=O)Nc1cc(C)no1 | inactive
* COc1ccc(C(Br)C(Br)C(=O)c2ccc3c(c2)OCO3)cc1OC (configuration not stated) | inactive
* Cn1c(=O)c2[nH]c(CCCc3nc4c([nH]3)c(=O)n(C)c(=O)n4C)nc2n(C)c1=O | inactive
* CC(=O)Nc1nc(C)c(CCC#N)c(=O)[nH]1 | inactive
* C=CC[Se]c1nc(N)nc2c1ncn2C1OC(CO)C(O)C1O (configuration not stated) | inactive
* NOCc1cccc([N+](=O)[O-])c1 | inactive
* O=c1oc(-c2ccccc2)nc2c(Cl)ccc(Cl)c12 | inactive
* C[N+](C)(C)CCO | inactive
* O=CNNC(=O)c1ccccn1 | inactive
* CC(=O)Oc1ccc(OC(C)=O)c2c1CC1(C)OC1(C)C2 (configuration not stated) | inactive
* CCOC(=O)C1(C(=O)OCC)COC(C)(C)OC1 | inactive
* CCOCCOCCOCCCNCCCN1CC1 | active
* CCN(CC)C(=O)Cn1ccc(NC(C)=O)nc1=O | inactive
* S=C1SCCS1 | inactive
* O=C(CCl)NC(CO)C(=O)O (configuration not stated) | inactive
* NC(N)=NC(N)=Nc1cnccn1 | inactive
* O=CC(Cl)Cl | inactive
* O=C1OC(=O)C2C1C1(Cl)C(Cl)=C(Cl)C2(Cl)C2C(=O)OC(=O)C21 (configuration not stated) | inactive
* COc1cccc2c1C(=O)c1c(O)c3c(c(O)c1C2=O)C[C@@](O)(C(C)=O)C[C@@H]3OC1CC(NC(C)=O)C(O)C(C)O1 (some centres not stated) | active
* CCOc1ccc(S(=O)(=O)O)c2cccnc12 | inactive
* Nc1nc(SN=Nc2ccc(S(=O)(=O)O)cc2)c2[nH]cnc2n1 | inactive
* CC(C)C([NH-])=O.CC(C)C([NH-])=O.[Cl][Pt+2][Cl] | inactive

Where do the numbers come from? From PubChem BioAssay AID328.
